assay: Elimination half life in Cynomolgous monkey at 0.2 mg/kg,iv by LC-MS/MS analysis; conditions: cynomolgus monkey, in vivo, read-out: beta t1/2 (converted)
measure_name: half-life

> print(dat)
                              sample.smiles    result
1  COc1ccc(CNC(=O)c2sc3nnc(C)c(C)c3c2N)cc1F  28.8 min

###

experiment: Ratio of unbound drug concentration in Beagle dog brain to plasma at 3 mg/kg, po by LC-MS/MS analysis; type: ADME, organism-based, Canis lupus familiaris; conditions: read-out: K(p,uu,brain)
measure_name: Kp uu

> print(dat)
                              sample.smiles  result
1  COc1ccc(CNC(=O)c2sc3nnc(C)c(C)c3c2N)cc1F    0.84
